These data points were gathered from patent US20200157236A1.

Listed here are binders together with their documented pKd.
- SYSTEM_UNDER_TEST: T1, purified ALK protein (BLitz, Table 20) (Homo sapiens (Human), UniProt Q9UM73 19-1038, limits assumed)
- T1 construct: also called purified ALK proteins
- EXPERIMENTAL_DETAILS: BLI (BLitz), mAb on Protein A tip, purified ALK in solution
Please note pKd is a logarithmic value: minus log10 of concentration in mol/L. Answer with that number alone.

These solved cases illustrate the format of a correct answer.
Ab397 (antibody, V domains shown, humanized) VH: EVQLVQSGAEVKKPGSSVKVSCKASGYTFSSYWMHWVRQAPGQGLEWIGYIKPSSGYTKYNQKFKDKATLTADKSTSTAYMELSSLRSEDTAVYYCARDYYGSSSWFAYWGQGTLVTVSS VL: EIVMTQSPATLSTSPGERATLSCKASQNVGTNVAWYQQKPGQAPRALIYSASYRYSGVPARFSGSGSGTDFTLTISSVEPEDFAVYYCQQYNSYPYMYTFGQGTKLEIK
6.42
Ab410 (antibody, V domains shown, humanized) VH: EVQLVQSGAEVKKPGSSVKLSCKASGYTFSSYWMHWVKQAPGQGLEWIGYIKPSSGYTKYAQKFQGRVTLTADKSTSTAYMELSSLRSEDTAVYYCARDYYGSSSWFAYWGQGTLVTVSS VL: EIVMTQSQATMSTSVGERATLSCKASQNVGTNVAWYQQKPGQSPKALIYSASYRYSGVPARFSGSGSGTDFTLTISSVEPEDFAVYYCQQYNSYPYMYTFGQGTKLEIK
6.84
Ab399 (antibody, V domains shown, humanized) VH: QVQLVQSGAEVAKPGTSVKLSCKASGYTFTSYWMHWVKQAPGQGLEWIGYIKPSSGYTKYNQKFKDKVTLTADKSTSTAYMELSSLRSEDTAVYYCARDYYGSSSWFAYWGQGTLVTVSS VL: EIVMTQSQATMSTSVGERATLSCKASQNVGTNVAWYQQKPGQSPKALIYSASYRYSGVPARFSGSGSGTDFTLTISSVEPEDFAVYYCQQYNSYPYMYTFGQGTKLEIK
6.97

## Input Would you mind telling me what pKd value was observed for Ab440 (antibody, V domains shown, humanized) VH: EVQLVQSGAEVKKPGASVKLSCKASGYTFTSYWMHWVRQAPGQGLEWIGYIKPSSGYTKYNQKFKDKATLTADKSTSTAYMELRSLRSDDTAVYYCARDYYGSSSWFAYWGQGTLVTVSS VL: EIVMTQSQATMSTSVGERATLSCKASQNVGTNVAWYQQKPGQSPKALIYGASTRATGVPARFSGSGSGTDFTLTISSVEPEDFAVYYCQQYNSYPYMYTFGQGTKLEIK ?
## Output 6.86

## Input Would you mind telling me what pKd value was observed for Ab412 (antibody, V domains shown, humanized) VH: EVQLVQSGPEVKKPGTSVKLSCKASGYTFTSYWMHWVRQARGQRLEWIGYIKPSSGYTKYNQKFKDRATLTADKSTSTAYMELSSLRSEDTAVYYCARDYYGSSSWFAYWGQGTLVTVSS VL: EIVMTQSQATLSTSPGERATLSCKASQNVGTNVAWYQQKPGQAPRALIYSASYRYSGVPARFSGSGSGTDFTLTISSVEPEDFAVYYCQQYNSYPYMYTFGQGTKLEIK ?
## Output 6.95
